FYI, the data here is from patent US10202379B2.

The compounds listed here are annotated with their EC50.
# Tested on: influenza virus
# Assay procedure: microbe, parasite or virus in culture
# Type: cell-based
# Reported conditions: parent compounds (Reference examples); MDBK or MDCK cells, 3 days, WST-8; read-out: CPE EC50
Quantity measured: EC50

                                   compound  quantity_measured   result
0  C[C@@H](N1CN([C@@H]2c3ccccc3SCc3cccc(Cl)c32)n2cc(CO)c(=O)c(O)c2C1=O)C(F)(F)F               EC50  3.91 nM
1  C[C@@H](N1CN([C@@H]2c3ccccc3CSc3ccccc32)n2ccc(=O)c(O)c2C1=O)C(F)(F)F [Reference example 414]               EC50   131 nM
2  COCCC(=O)Oc1c2n(ccc1=O)N([C@@H]1c3ccccc3SCc3c(Cl)cccc31)CN([C@H](C)C(F)(F)F)C2=O               EC50    19 nM
3  CC(C)N1C(=O)c2c(OCc3ccccc3)c(=O)ccn2N(C2c3ccccc3CCc3ccccc32)C1c1ccc(Cl)cc1 (centres unmarked) [Reference example 527]               EC50    88 nM
4  C[C@@H](N1CN([C@@H]2c3ccccc3SCc3c(Cl)cccc32)n2ccc(=O)c(OCOC(=O)NCCN)c2C1=O)C(F)(F)F               EC50    75 nM
